# EXPERIMENTAL_TARGET: human mGluR2 receptor (Homo sapiens)
# Construct: expressed in transfected cells; host or cells: CHO cells (membrane preparation)
# ASSAY_METHOD_TEXT: [35S]GTPγS binding assay, hmGluR2 PAM (membranes from transfected CHO cells, glutamate at EC20)
# Type: biochemical
# TEST_CONTEXT: in presence of mGluR2 agonist glutamate at a predetermined EC20 concentration; pEC50 = -log EC50 (M); at least 8 concentrations
ASSAY_ENDPOINT: EC50 (M)
Write the value in M as a bare number.

Incoming: Fill in EC50 for record CC1(c2ccccc2F)COCCN1Cc1ccn2c(CC3CC3)nnc2c1C(F)(F)F (single isomer, unassigned) [Compound 4b]
Outgoing: 1.95e-07

Incoming: Return EC50 (reported value) for this compound: `FC(F)(F)c1c(CN2CCOC[C@H]2c2ccccc2)ccn2c(CC3CC3)nnc12`
Outgoing: 1.7e-07

Incoming: Please list EC50 recorded for the compound CC1(c2ccc(F)cc2F)COCCN1Cc1ccn2c(CC3CC3)nnc2c1C(F)(F)F (single isomer, unassigned) [Compound 5a]
Outgoing: 2e-07

Incoming: # return recorded EC50 for input CC1(c2ccccc2F)COCCN1Cc1ccn2c(CC3CC3)nnc2c1C(F)(F)F (single isomer, unassigned) [Compound 4a]
Outgoing: 1.82e-07

Incoming: Quick one: give measured EC50 for `FC(F)(F)c1c(CN2CCOC[C@@H]2c2ccccc2)ccn2c(CC3CC3)nnc12`
Outgoing: 4.27e-07

Incoming: Report measured EC50; entry is CC1(c2ccc(F)cc2F)COCCN1Cc1ccn2c(CC3CC3)nnc2c1C(F)(F)F (single isomer, unassigned) [Compound 5b]
Outgoing: 1.38e-07

---

# EXPERIMENTAL_TARGET: human mGluR2 receptor (Homo sapiens, UniProt Q14416)
# Construct: expressed in transfected cells; host or cells: CHO cells (membrane preparation)
# Sequence (Q14416 19-872): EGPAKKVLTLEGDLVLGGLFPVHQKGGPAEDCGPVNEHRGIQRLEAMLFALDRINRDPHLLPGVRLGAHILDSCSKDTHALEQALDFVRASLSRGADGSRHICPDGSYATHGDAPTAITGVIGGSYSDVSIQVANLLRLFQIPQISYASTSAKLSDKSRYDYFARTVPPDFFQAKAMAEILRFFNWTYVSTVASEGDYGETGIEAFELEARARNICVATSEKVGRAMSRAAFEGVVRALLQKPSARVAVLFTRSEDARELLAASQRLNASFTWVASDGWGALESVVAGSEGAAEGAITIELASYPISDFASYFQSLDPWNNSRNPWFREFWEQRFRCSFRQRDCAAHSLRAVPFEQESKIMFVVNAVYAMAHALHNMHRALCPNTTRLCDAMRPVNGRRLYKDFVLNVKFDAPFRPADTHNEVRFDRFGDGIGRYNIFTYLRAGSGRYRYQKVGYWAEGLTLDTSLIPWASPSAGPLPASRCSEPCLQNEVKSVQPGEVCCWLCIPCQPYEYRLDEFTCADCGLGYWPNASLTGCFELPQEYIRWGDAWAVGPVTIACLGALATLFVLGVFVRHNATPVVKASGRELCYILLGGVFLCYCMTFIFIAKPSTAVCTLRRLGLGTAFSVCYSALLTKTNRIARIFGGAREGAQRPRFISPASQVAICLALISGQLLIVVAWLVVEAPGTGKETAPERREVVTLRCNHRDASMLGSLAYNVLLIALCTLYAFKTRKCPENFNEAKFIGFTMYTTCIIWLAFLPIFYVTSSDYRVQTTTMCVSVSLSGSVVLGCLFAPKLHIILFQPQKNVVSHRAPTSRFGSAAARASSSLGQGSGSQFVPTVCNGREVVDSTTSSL
# ASSAY_METHOD_TEXT: [35S]GTPγS binding assay, hmGluR2 PAM (membranes from transfected CHO cells, glutamate at EC20)
# Type: biochemical
# TEST_CONTEXT: relative maximal effect (maximal % effect relative to the control glutamate response); glutamate at EC20
ASSAY_ENDPOINT: GTPγS - hmGluR2 PAM Emax (%)
Just the number in %, nothing appended.

Incoming: In one line, give reported GTPγS - hmGluR2 PAM Emax of the entry CC1(c2ccccc2F)COCCN1Cc1ccn2c(CC3CC3)nnc2c1C(F)(F)F (single isomer, unassigned) [Compound 4a] .
Outgoing: 108

Incoming: Please give measured GTPγS - hmGluR2 PAM Emax of the following entry: CC1(c2ccccc2F)COCCN1Cc1ccn2c(CC3CC3)nnc2c1C(F)(F)F (single isomer, unassigned) [Compound 4b]
Outgoing: 52

Incoming: Retrieve GTPγS - hmGluR2 PAM Emax measured for CC1(c2ccc(F)cc2F)COCCN1Cc1ccn2c(CC3CC3)nnc2c1C(F)(F)F (single isomer, unassigned) [Compound 5b] and print it.
Outgoing: 126

Incoming: In one line, give reported GTPγS - hmGluR2 PAM Emax of the entry CC1(c2ccc(F)cc2F)COCCN1Cc1ccn2c(CC3CC3)nnc2c1C(F)(F)F (single isomer, unassigned) [Compound 5a] .
Outgoing: 101
